B1: Cytoplasmic polyadenylation element-binding protein 2, residues 513 to 575; numbered along this chain, Q7Z5Q1 (parent)
chain: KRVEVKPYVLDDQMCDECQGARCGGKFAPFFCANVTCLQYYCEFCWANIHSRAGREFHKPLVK

- Variants of: B1
- run-description: abundance fitness (aPCA) (normalised: wild type 0, dead -1); higher = more abundant; growth selection in yeast, the domain comes from the species named
- condition-parameters: Homo sapiens
Classify by abundance fitness. Ranges: lowest: < -0.2; middle: ≥ -0.2 and < -0.02; highest: ≥ -0.02

Sample answers from the record:
R22G: lowest
F57H: highest
C42V: lowest
N34D: middle
F31V: lowest
F31R: lowest

Q) # bin label for C18A
A) lowest

Q) # bin label for R22I
A) lowest

Q) # bin label for F57A
A) highest

Q) # bin label for R2D
A) highest

Q) # bin label for A47E
A) highest

Q) # bin label for A33M
A) middle

Q) # bin label for E43T
A) middle

Q) # bin label for A53Q
A) highest

Q) # bin label for K26I
A) lowest

Q) # bin label for V3Q
A) highest

Q) # bin label for N34I
A) lowest

Q) # bin label for V3S
A) highest

Q) # bin label for R52L
A) highest

Q) # bin label for D11P
A) middle

Q) # bin label for D12T
A) middle
